Molecular target: T1, Anti-CD28 Fab (SEQ ID NOs: 202, 203);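 further: coated wells pre-incubated with CD28 antigen or with blocking buffer only, then crude clonal phage supernatant added briefly, and retained phage read out via HRP-linked anti-M13 antibody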
T1 construct: biotinylated and captured on neutravidin coated plates in the phage ELISA
T1 sequence (VH, as listed by the source, chain 1 of 2): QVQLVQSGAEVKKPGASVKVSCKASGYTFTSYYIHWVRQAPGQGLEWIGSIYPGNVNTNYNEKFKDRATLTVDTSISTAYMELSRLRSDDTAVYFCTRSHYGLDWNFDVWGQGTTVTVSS
T1 sequence (VL, as listed by the source, chain 2 of 2): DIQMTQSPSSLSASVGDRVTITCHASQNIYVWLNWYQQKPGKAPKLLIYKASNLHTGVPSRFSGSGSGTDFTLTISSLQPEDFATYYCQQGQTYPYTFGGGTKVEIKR
Experiment: phage binding ELISA, Fab on plate, CD28 as competitor
quantity.kind: Anti-CD28 Fab signal in the presence of CD28

> print(dat)
                        binder  endpoint.value
1   TCRAGATYNWPFCL [Phage-996]            0.07
2  LCNAGAPYKWPTCL [Phage-1050]            0.07
3  TCSAGAHFAWPMCF [Phage-1045]            0.07
4  LCAAGANYPWPACL [Phage-1053]            0.07
5  SCAAGATYTWPMCI [Phage-1054]            0.07
6  TCSAGASYPWPVCL [Phage-1048]            0.07
7  RCAAGVMYDWPVCL [Phage-1043]            0.07
8  QCAAGASYPWPVCL [Phage-1008]            0.07
9  TCSAGFSYSWPACF [Phage-1000]            0.07
